# EXPERIMENT DESCRIPTION: RPMI8226 myeloma cell viability, profiling panel, resazurin fluorescence, basal, 24 h, PK04 Diversity Set (AID 1180);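 further: RPMI8826 multiple myeloma cell line at 5000 cells per well; test concentration not given here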
# CONDITION CONTEXT: higher = more signal
Decision: z-score >= 0.1 yields TRUE, all other cases yield FALSE.

Could you please find out whether C=CCC(OC(C)=O)[C@@H]1[C@@H](N(Cc2ccc(-c3cccc(C(F)(F)F)c3)o2)C(=O)Cc2ccc(F)cc2)c2cc(OCCCO)ccc2N1C(=O)c1ccc2ccccc2c1 (stereo not given in full) has z-score that meets 0.1 or exceeds it?
TRUE

Query C/C=C/CN(C(=O)C#Cc1ccccc1)[C@H](CO[Si](C)(C)C(C)(C)C)c1ccccc1 next
TRUE

Consider next the compound CC[C@H](C)C(=O)O[C@H]1CC[C@]2(C)C3=C(CCC2C1(C)C)[C@]1(C)CC[C@H]([C@H](C)CCCC(C)C)[C@@]1(C)CC3 (stereo not given in full) in the same way.
TRUE

And the next one, C=CC[C@@]12N=C(c3ccc(OCCCO)cc3)O[C@@H]1c1ccccc1N(Cc1ccccc1)C2=O ?
FALSE

Quick one: COCCOC(=O)N1C(=O)[C@@]2(c3cc(C#CC4=CCCCC4)ccc31)[C@H](C(=O)N1CCc3cc(OC)c(OC)cc3C1)[C@H]1C(=O)O[C@H](c3ccccc3)[C@H](c3ccccc3)N1[C@@H]2c1ccc(O)cc1
TRUE

Field entry: COC(=O)c1c(CC[C@@H](CO)NC(=O)N[C@@H](Cc2ccccc2)Cn2cc(-c3cncn3C)nn2)oc(C(C)=O)c1C(=O)OC
FALSE

How about CC=CC(O)C1C=CC2C(=O)N(C)C(=O)C2N1NC(=O)OC(C)(C)C (stereo not given) ?
FALSE

Would you mind doing COCCCNC(=O)[C@@H]1c2ccccc2C(=O)N(Cc2cc(C(F)(F)F)cc(C(F)(F)F)c2)[C@H]1c1ccc(CO)cc1 as well?
TRUE

What about this compound? CC(C)C[C@@H]1NC(=O)[C@@H]2C[C@H](C(=O)O)[C@H](c3ccc(O)cc3)N2C1=O
TRUE

Then what about the compound COCCOC(=O)N1C(=O)[C@@]2(c3cc(C#CCNC(N)=O)ccc31)[C@H](C(=O)NC[C@H](O)c1ccccc1)[C@H]1C(=O)O[C@H](c3ccccc3)[C@H](c3ccccc3)N1[C@@H]2c1ccc(OCCO)cc1 ?
TRUE

Now the compound C=CCC(OC(C)=O)[C@@H]1[C@@H](N(Cc2cccc3ccccc23)C(=O)c2ccc(-c3ccccc3)cc2)c2cc(OCCCO)ccc2N1C(=O)c1ccc2ccccc2n1 (stereo not given in full)
TRUE

Next up: COC(=O)[C@@]1(Cc2ccccc2)[C@@H]2[C@@H](CC(=O)[C@H]2CC(=O)C(=O)N(C)C)CN1C(=O)c1ccccc1
FALSE

Also, CCOC(=O)C[C@H]1[C@H](OC(=O)c2ccc(-c3ccccc3)cc2)[C@@H](NC(=O)c2ccc3ccccc3c2)c2cc(OCCCO)ccc2N1C(=O)c1ccccc1 please.
FALSE

And what about the compound CC(=O)NCCCC[C@@H]1NC(=O)[C@@H]2C[C@H](C(=O)NCCCCCC[N+](C)(C)C)[C@H](c3ccc(O)cc3)N2C1=O ?
FALSE

Now give it for C[C@]1(C(=O)NCC(F)(F)F)c2ccccc2C(=O)N(Cc2ccc(OC(F)(F)F)cc2)[C@H]1c1ccc(CO)cc1 too.
TRUE

Try COC(=O)[C@@]1(CCC(=O)OC(C)(C)C)N=C(c2ccc(OCCCO)cc2)O[C@H]1c1ccccc1CN=[N+]=[N-] next.
FALSE

Then what about the compound C=C(CC1([C@@H](NP(=O)(c2ccccc2)c2ccccc2)[C@H]2C[C@@H]2CCN(C(=O)OCC)S(=O)(=O)c2ccc(C)cc2)CC1)c1ccccc1 ?
FALSE

Check COCCOC(=O)N1C(=O)[C@@]2(c3cc(C#CC4(O)CCCCCC4)ccc31)[C@H](C(=O)NC[C@H](O)c1ccccc1)[C@H]1C(=O)O[C@H](c3ccccc3)[C@H](c3ccccc3)N1[C@@H]2c1ccc(O)cc1 too.
FALSE

And what about the compound O=C(NCC(F)(F)F)[C@@H]1c2ccccc2C(=O)N(CC23CC4CC(CC(C4)C2)C3)[C@H]1c1ccc(CO)cc1 ?
TRUE

What do you have for CC(c1ccccc1)C(O)C1C=CC2C(=O)N(c3ccccc3)C(=O)C2N1Nc1ccc(C#N)cc1 (stereo not given) ?
FALSE

Then what about the compound CN(C)CCCC[C@@H]1NC(=O)[C@@H]2C[C@H](C(=O)NCCCCCCNC(=O)CS)[C@H](c3cccc(OCCO)c3)N2C1=O ?
TRUE

Another compound: CCCCC(=C=CC[C@@H](O)c1cccc(OCCO)c1)C[C@@H](O)COCc1ccccc1
TRUE

Please give the result for CCOC(=O)C1=CC[C@@H](c2ccccc2)N(S(=O)(=O)c2ccc(C)cc2)[C@H]1C#N too.
FALSE

Same for CCOC(=O)C1=CCC(c2cc3ccccc3[nH]2)N(S(=O)(=O)c2ccccc2[N+](=O)[O-])C1 (stereo not given)
FALSE

Same question, C=C(COC)/C(=C/C[C@H](OC(=O)c1ccncc1)c1cccc(OCCO)c1)c1cnc2ccccc2c1 this time
FALSE

###

Would you kindly list composite z-score for each of these molecules?
# EXPERIMENT DESCRIPTION: small-molecule microarray binders of probe aCHRDL2, primary screen, biochemical, biotinylated probe, 635/667 nm fluorescence (AID 1100)
# CONDITION CONTEXT: higher = more signal
Reply briefly: the number, and no unit.

// returns reported composite z-score for input Cc1ccc(F)cc1S(=O)(=O)N[C@@H]1CCN(Cc2ccc3c(c2)OCO3)C1
-0.289

Another molecule to check: C=C(COC)C(=O)CC[C@@H](OC(=O)c1cccnc1)c1cccc(OCCO)c1
0.618

What do you have for CCCCC(=C=CC[C@@H](O)c1cccc(OCCO)c1)CCO ?
0.254

Would you kindly repeat that for COc1ccccc1CN1C(=O)c2ccccc2[C@](Cc2ccccc2I)(C(=O)NCCCN(C)C)[C@@H]1c1ccc(CO)cc1 ?
-0.376

Another molecule to check: C=C(CCCC)C(=O)CC[C@H](OC(=O)c1cccnc1)c1ccc(CO)o1
-0.519

Same question for CCOC(=O)C[C@H]1[C@H](OC(=O)c2ccc(C(=O)c3ccccc3)cc2)[C@@H](NC(=O)c2ccc3ccccc3c2)c2cc(OCCCO)ccc2N1C(=O)c1ccc2ccccc2n1 please.
0.0404

And the next one, CC(C)CNC(=O)[C@@H]1c2ccccc2C(=O)N(Cc2ccccc2Cl)[C@H]1c1ccc(CO)cc1 ?
0.959

// repeat for C=C(CC1([C@@H](NP(=O)(c2ccccc2)c2ccccc2)[C@H]2C[C@@H]2CCN(C(=O)OCC)S(=O)(=O)c2ccc(C)cc2)CC1)c1ccccc1 and report
1.23

###

# EXPERIMENT DESCRIPTION: small-molecule microarray binders of probe aXIP, primary screen, biochemical, NeuroSMM set, 635/667 nm fluorescence (AID 1119);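 further: probe is the protein aXip251-270 applied at 1 µg/mL to compound-printed slides; binding of probe to printed compounds measured as 667 nm fluorescence plus signal to noise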
# CONDITION CONTEXT: higher = more signal, called active from +8 up or from −8 down
# if value of composite Z-score reaches 0.2, tag true; if it stays below, tag false

Say whether C[C@H]1C2[C@H](Cc3ccccc3)NC(=O)[C@]23C(=O)NCC(=O)N2CCC[C@H]2C(=O)NC/C=C\C/C=C/C3[C@@H]2O[C@]12C (stereo partly specified) shows composite Z-score of 0.2 or more.
false

Then COCCOC(=O)N1C(=O)[C@@]2(c3cc(C#CC4=CCCCC4)ccc31)[C@H](c1ccccc1OCCO)N1[C@H](c3ccccc3)[C@H](c3ccccc3)OC(=O)[C@H]1[C@@H]2C(N)=O ?
false

Another compound to check: N#Cc1ccc(C(O)C2C=CC3C(=O)N(c4ccccc4)C(=O)C3N2Nc2ccc([N+](=O)[O-])cc2)cc1 (stereo unspecified)
true

Record: O=C1N(CCS(=O)(=O)c2ccccc2)c2ccccc2[C@@H]2OC(c3ccc(OCCCO)cc3)=N[C@]12CCS(=O)(=O)c1ccccc1
true

Moving on to the next compound: C=CCNC(=O)[C@@H]1[C@H]2C(=O)O[C@H](c3ccccc3)[C@H](c3ccccc3)N2[C@H](c2ccc(O)cc2)[C@@]12C(=O)Nc1ccc(C#CC3(O)CCCCCC3)cc12
false

Record: CC(C)C[C@@H]1NC(=O)[C@@H]2C[C@H](C(=O)O)[C@H](c3ccc(O)cc3)N2C1=O
false

###

Kindly state z-score for each of the entries shown.
# EXPERIMENT DESCRIPTION: A549 cell viability effects, profiling panel, calcein-AM fluorescence, 48 h, basal (AID 1162); further: test concentration not given here
# CONDITION CONTEXT: higher = more signal
API note: the answer field is a bare number with no unit suffix.

Field request: z-score | item: COCCOC(=O)N1C(=O)[C@@]2(c3cc(C#CC4=CCCCC4)ccc31)[C@H](c1ccccc1OCCO)N1[C@H](c3ccccc3)[C@H](c3ccccc3)OC(=O)[C@H]1[C@@H]2C(N)=O
-1.13

Continue with O=C1NC(=O)C2C1C=CC(C(O)c1ccc(F)cc1)N2Nc1ccccn1 (stereo not given)
-1.12

For CCCCN1CC=CC23O[C@@H]4C=CCOC(=O)[C@@H]4[C@H]2C(=O)N(CCO)[C@@H]3C1=O (stereo not given in full) then?
0.0738

Record: CCCC[C@H]1OB(O)C[C@H]2C1=C(COC)C[C@H]1C(=O)C=CC(=O)[C@H]12
0.2

// repeat for Cc1ccc(S[C@]2(C(=O)NCCCN(C)C)CC(=O)N(Cc3ccccc3Cl)[C@@H]2c2ccc(CO)cc2I)cc1 and report
0.171

Further, for O=C1O[C@@H](c2ccccc2)[C@@H](c2ccccc2)N2[C@@H](c3ccc(O)cc3)[C@]3(C(=O)Nc4ccc(C#CC5=CCCCC5)cc43)[C@@H](C(=O)N3CCCCCCC3)[C@H]12 ?
-0.361

And for CCCC[C@@H]1C[C@H]1[C@@H](NC(=O)c1ccc(C(F)(F)F)cc1)c1ccc(C(=O)OC)cc1 ?
-0.844

Can you check C[C@@H](OCc1ccccc1)C1NC(=O)[C@@]23C(=O)N[C@@H](Cc4ccccc4)C2[C@H](C)[C@@]2(C)O[C@H]2C3/C=C/C/C=C\CNC(=O)[C@H](Cc2ccccc2)NC1=O (stereo not given in full) next?
0.247

Now consider CCCCN1CC=CC23O[C@@H]4C=CCOC(=O)[C@@H]4[C@H]2C(=O)N(C(CO)C(C)C)[C@@H]3C1=O (stereo not given in full) and answer again.
-0.503

Continue with C=C(CCCC)C(=O)CC[C@H](OC(=O)c1cccnc1)c1ccc(CO)o1
-0.489

Do the same for CCN(CC)c1ccc(N2CC=CC34O[C@@H]5C=CCOC(=O)[C@@H]5[C@H]3C(=O)N(CCO)[C@@H]4C2=O)cc1 (stereo not given in full) please
1.22

And the next one, COCC(=C=CC[C@@H](O)c1cccc(OCCO)c1)C[C@@H](O)COCc1ccccc1 ?
1.06

Now consider CN(C)C(=O)[C@]1(Cc2ccccc2CN=[N+]=[N-])N=C(c2ccc(OCCCO)cc2)O[C@@H]1c1ccccc1N=[N+]=[N-] and answer again.
-0.691

Next record, please: COCCCN1C(=O)[C@@]2(Cc3ccccc31)c1ccccc1C(=O)N(Cc1ccccc1OC)[C@H]2c1ccc(CO)cc1
-0.609

What about CCOC(=O)C1=CC[C@@H](c2ccc(F)cc2)N(S(=O)(=O)c2ccc(C)cc2)[C@H]1c1ccc([N+](=O)[O-])cc1 ?
-0.606

Values were extracted from PubChem BioAssay.
